All values here come from patent EP0329225A2.

- assay.target: Acetoacetyl-coenzyme A thiolase (Rattus norvegicus)
- Construct: prepared from the livers of Sprague Dawley rats treated in the diet for one week with 0.075% lovastatin to induce the enzyme; from tissue; host or cells: liver of Sprague Dawley rats fed lovastatin
- Sequence (Q5XI22 whole entry): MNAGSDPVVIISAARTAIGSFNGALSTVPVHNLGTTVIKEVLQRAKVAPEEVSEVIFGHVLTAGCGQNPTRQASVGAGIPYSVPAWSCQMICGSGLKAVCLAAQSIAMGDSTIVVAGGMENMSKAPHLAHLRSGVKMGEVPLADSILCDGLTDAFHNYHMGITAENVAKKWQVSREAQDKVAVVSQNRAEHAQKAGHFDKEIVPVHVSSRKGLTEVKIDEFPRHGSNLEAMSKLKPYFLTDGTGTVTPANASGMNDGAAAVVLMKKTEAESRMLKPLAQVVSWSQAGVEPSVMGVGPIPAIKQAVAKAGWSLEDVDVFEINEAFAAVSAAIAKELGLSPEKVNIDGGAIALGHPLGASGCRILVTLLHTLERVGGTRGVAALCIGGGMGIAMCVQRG
- test.method.notes: Acetoacetyl-coenzyme A thiolase inhibition (coupled spectrophotometric assay, NADH oxidation at 340 nm)
- Assay type: biochemical, Sprague Dawley rats
- condition.info: enzyme from livers of lovastatin-treated rats; room temperature, pH 7.5; read-out: IC₅₀
pIC50: −log10 of the molar value.
# pIC50 values compiled below
property: pIC50

molecule	property	readout.number
C#CC#CC#C[C@@H](O)[C@@H](O)[C@@H](O)CCCCCCC(=O)O	pIC50	6.82
C#CC#CC(O)CCCCCCCCC(=O)OC (stereo not shown)	pIC50	4.59
C#CC#CC#C[C@@H](O)[C@@H](O)[C@@H](O)CCCCCCC(=O)OC	pIC50	4.42
C#CC#CC#CC(O)CCCCCCCCC(=O)OC (stereo not shown)	pIC50	7.62
